- Test system: nitric oxide production induced by gamma interferon in PAM212 keratinocytes
- PARTICULARS: read-out: Nitric oxide inhibition IC50, 100 U/ml gamma interferon, nitrite at 72 hours
EXPERIMENTAL_ENDPOINT: IC50 (µM)
Report as a plain number; the unit µM is understood.

(Q) For the molecule O=[N+]([O-])c1ccccc1C=CC=Nn1c(S)nnc1-c1cccs1 , give its reported IC50.
(A) 14

All figures here come from patent US9290484B2.
